Where do these numbers come from? They come from paper PMC5700166.

Target: GST-Dm-Relish (Drosophila melanogaster, UniProt Q94527 99-473)
Sequence: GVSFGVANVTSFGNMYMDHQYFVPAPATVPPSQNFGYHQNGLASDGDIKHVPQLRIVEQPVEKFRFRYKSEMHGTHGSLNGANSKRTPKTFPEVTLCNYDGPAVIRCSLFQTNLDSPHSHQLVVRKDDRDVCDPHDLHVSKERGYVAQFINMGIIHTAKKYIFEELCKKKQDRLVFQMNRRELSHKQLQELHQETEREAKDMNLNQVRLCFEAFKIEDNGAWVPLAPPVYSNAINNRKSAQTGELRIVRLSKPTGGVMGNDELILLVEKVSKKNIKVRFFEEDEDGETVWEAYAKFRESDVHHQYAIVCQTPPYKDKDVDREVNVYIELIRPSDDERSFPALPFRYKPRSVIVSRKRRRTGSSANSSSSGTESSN
Assay: protein-binding microarray (PBM); PBM: ~300 nM protein, 6 mM HEPES pH 7.8, 80 mM KCl, 0.5 mM EDTA, 0.5 mM EGTA, 6% glycerol, 35 ng/ul poly-dIdC, 1% milk, 1 h, room temperature; Ap Aiptasia and Nv Nematostella (sea anemones) / Co Capsaspora / Aq Amphimedon (sponge) / Dm Drosophila / Hu human; RHD is the Rel homology domain; high values mean tight binding
Conditions: dsDNA, one strand shown
Hi, to clarify the labels: 1 (yes) covers binding signal from 4 z-score upward, 0 (no) covers anything below 4 z-score.

Determine whether measured binding signal meets or exceeds 4 z-score for CCGATTAACATCAGGGGAACCCATGATGTTAATCGGGTCTTGATTCGCTTGACGCTGCTG 1 (yes)

Determine whether measured binding signal meets or exceeds 4 z-score for CCGATTAACATCAATGGGTTTCCTGATGTTAATCGGGTCTTGATTCGCTTGACGCTGCTG 0 (no)

Determine whether measured binding signal meets or exceeds 4 z-score for CCGATTAACATCACCACTTTCCCTGATGTTAATCGGGTCTTGATTCGCTTGACGCTGCTG 0 (no)

Determine whether measured binding signal meets or exceeds 4 z-score for CCGATTAACATCAAAAGTCCCCTTGATGTTAATCGGGTCTTGATTCGCTTGACGCTGCTG 1 (yes)

Determine whether measured binding signal meets or exceeds 4 z-score for CCGATTAACATCAGGAGCTCCCCTGATGTTAATCGGGTCTTGATTCGCTTGACGCTGCTG 0 (no)

Determine whether measured binding signal meets or exceeds 4 z-score for CCGATTAACATCAGGGAAATCCCTGATGTTAATCGGGTCTTGATTCGCTTGACGCTGCTG 1 (yes)

Determine whether measured binding signal meets or exceeds 4 z-score for CCGATTAACATCAGGGGGTTAGATGATGTTAATCGGGTCTTGATTCGCTTGACGCTGCTG 1 (yes)

Determine whether measured binding signal meets or exceeds 4 z-score for CCGATTAACATCAGGGGGGACGATGATGTTAATCGGGTCTTGATTCGCTTGACGCTGCTG 0 (no)
